The origin of these recorded values is ChEMBL document CHEMBL4480362.

Recorded pIC50 by entry
# Test system: A549
# test-description: Cytotoxicity against human A549 cells assessed as reduction in cell viability after 48 hrs by MTT assay
# Assay type: functional, cell-based
# condition-info: A549, 48 h
pIC50: −log10 of the molar value.
measurement-type: pIC50

INSERT INTO results (compound, result) VALUES
  ('Cc1cc2nc(NC(=O)CN3CCN(CCN4C(=O)c5cccc6cccc(c56)C4=O)CC3)sc2cc1C', 5.21),
  ('Cc1nc2ccc(NC(=O)CN3CCN(CCN4C(=O)c5cccc6cccc(c56)C4=O)CC3)cc2s1', 5.41),
  ('Cc1ccc2nc(NC(=O)CN3CCN(CCN4C(=O)c5cccc6cccc(c56)C4=O)CC3)sc2c1', 5.09),
  ('COc1ccc(/C=C/C(=O)N2CCN(CCN3C(=O)c4cccc5cccc(c45)C3=O)CC2)c(OC)c1', 4.57),
  ('CN(C)c1ccc(/C=C/C(=O)N2CCN(CCN3C(=O)c4cccc5cccc(c45)C3=O)CC2)cc1', 5.08),
  ('O=C(/C=C/c1ccc(F)cc1F)N1CCN(CCN2C(=O)c3cccc4cccc(c34)C2=O)CC1', 4.79),
  ('O=C(/C=C/c1cc(F)cc(F)c1)N1CCN(CCN2C(=O)c3cccc4cccc(c34)C2=O)CC1', 5.19),
  ('O=C(/C=C/c1ccccc1)N1CCN(CCN2C(=O)c3cccc4cccc(c34)C2=O)CC1', 4.66),
  ('O=C(/C=C/c1ccc(F)c(F)c1)N1CCN(CCN2C(=O)c3cccc4cccc(c34)C2=O)CC1', 4.74),
  ('O=C(/C=C/c1ccc2c(c1)OCO2)N1CCN(CCN2C(=O)c3cccc4cccc(c34)C2=O)CC1', 5.32),
  ('CCOc1ccc(/C=C/C(=O)N2CCN(CCN3C(=O)c4cccc5cccc(c45)C3=O)CC2)cc1', 4.71),
  ('O=C(CN1CCN(CCN2C(=O)c3cccc4cccc(c34)C2=O)CC1)Nc1ccc2ncsc2c1', 5.39),
  ('CN(C)CCN1C(=O)c2cccc3cc(N)cc(c23)C1=O [AMONAFIDE]', 5.11),
  ('COc1cccc(/C=C/C(=O)N2CCN(CCN3C(=O)c4cccc5cccc(c45)C3=O)CC2)c1', 4.66),
  ('CCOc1ccc2nc(NC(=O)CN3CCN(CCN4C(=O)c5cccc6cccc(c56)C4=O)CC3)sc2c1', 4.78),
  ('O=C(/C=C/c1cccc(C(F)(F)F)c1)N1CCN(CCN2C(=O)c3cccc4cccc(c34)C2=O)CC1', 4.70),
  ('O=C(/C=C/c1cc(F)ccc1F)N1CCN(CCN2C(=O)c3cccc4cccc(c34)C2=O)CC1', 5.19),
  ('COc1ccc(/C=C/C(=O)N2CCN(CCN3C(=O)c4cccc5cccc(c45)C3=O)CC2)cc1O', 4.85);

###

Recorded pIC50 by entry
# Tested on: HT-29
# test-description: Cytotoxicity against human HT-29 cells assessed as reduction in cell viability after 48 hrs by MTT assay
# Format: functional, cell-based
# condition-info: HT-29, 48 h
pIC50: −log10 of the molar value.
measurement-type: pIC50

INSERT INTO results (line_notation, measurement_type, result) VALUES
  ('Cc1cc2nc(NC(=O)CN3CCN(CCN4C(=O)c5cccc6cccc(c56)C4=O)CC3)sc2cc1C', 'pIC50', 5.30),
  ('CCOc1ccc(/C=C/C(=O)N2CCN(CCN3C(=O)c4cccc5cccc(c45)C3=O)CC2)cc1', 'pIC50', 4.92),
  ('CCOc1ccc2nc(NC(=O)CN3CCN(CCN4C(=O)c5cccc6cccc(c56)C4=O)CC3)sc2c1', 'pIC50', 4.95),
  ('Cc1ccc2nc(NC(=O)CN3CCN(CCN4C(=O)c5cccc6cccc(c56)C4=O)CC3)sc2c1', 'pIC50', 5.39);
